molecular target: T1, Soluble IGF-1R (R&D Systems, Cat. # 391-GR/CF) (UniProt P08069 31-935, limits assumed); assay: phage ELISA: IGF-1R ratio over background divided by IR ratio over background
T1 construct: extracellular domain; also called sIGF-1R; IGFR
Label Y when Comparison IGF-1R/IR is at or above 3 ratio; anything below gets N.

{"columns": ["binder", "category_label"],
 "data": [
  ["DYKDRCGDEEGWQENRRDDPFYHKLSELFGGCAAAGAP (not shown: rest of the phage display fusion (remainder of E-Tag, phage coat protein)) [B6Hα-3-E5-IR]", "N"],
  ["DYKDLSCLAYSRHGIWRPSTDLGLGRSVGEGSVSTRWRGYDWFEAAAGAP (not shown: rest of the phage display fusion (remainder of E-Tag, phage coat protein)) [40F-4-D1-IGFR]", "Y"],
  ["DYKDVRGFQGGTVWPGYEWLRNAAAAAGAP (not shown: rest of the phage display fusion (remainder of E-Tag, phage coat protein)) [R20β-4-E8-IR]", "Y"],
  ["DYKDQSGSGDFYDWLSRLIRGNGDGAAAGAP (not shown: rest of the phage display fusion (remainder of E-Tag, phage coat protein)) [20E2Bβ-3-C7-IR]", "N"],
  ["DYKDSRVAATKEKRPSDDPFYHKLSELLQGSAAAGAP (not shown: rest of the phage display fusion (remainder of E-Tag, phage coat protein)) [B6Hα-3-F7-IR]", "Y"]
]}
